Biological target: cGMP-specific 3',5'-cyclic phosphodiesterase (Homo sapiens)
Experiment: Inhibition of human recombinant PDE5A1 expressed in COS7 cells
Assign pIC50 to each entry below.
Answer as the number alone; pIC50 is minus log10 of concentration in mol/L.

The reported pIC50 of the molecule CC(C)=CCc1c(O)cc(O)c2c1OC(c1ccc(O)cc1)CC2=O (stereo not given) was 4.79

The reported pIC50 of the molecule COc1ccc(-c2oc3c(CC=C(C)C)c(OCCO)cc(O)c3c(=O)c2OCCO)cc1 was 7.13

The reported pIC50 of the molecule CC(C)=CCc1c(O)cc(O)c2c(=O)cc(-c3ccc(O)cc3)oc12 was 5.89

The reported pIC50 of the molecule COc1ccc(-c2oc3c(CC=C(C)C)c(OCCO)cc(O)c3c(=O)c2O[C@@H]2O[C@H](C)[C@@H](O)[C@H](O)[C@@H]2O)cc1 was 6.44

The reported pIC50 of the molecule COc1ccc(-c2oc3c(CC=C(C)C)c(O[C@@H]4O[C@H](CO)[C@@H](O)[C@H](O)[C@H]4O)cc(O)c3c(=O)c2O[C@@H]2O[C@@H](C)[C@H](O)[C@@H](O)[C@H]2O)cc1 was 5.23
